Reported values of IC50 for individual entries
target-or-system: VIM-2 (Escherichia coli, UniProt Q5U7L7)
Construct: made in house; host or cells: Escherichia coli
experiment-notes: biochemical
Assay type: biochemical
reported-conditions: FC-5 based assay, n ≥ 3; read-out: pIC50 (VIM-2) (converted)

Query string: Value lookup for IC50; key = O=C(O)C(Cc1ccc(O)cc1)NC1CCS(=O)(=O)C1 (stereo not shown)
Result string: 661 µM

Query string: Value lookup for IC50; key = CC(c1ccccc1)N1Cc2cccc(C(=O)O)c2C1=O (stereo not shown)
Result string: 166 µM

Query string: Value lookup for IC50; key = COc1ccc(CN2Cc3cccc(C(=O)O)c3C2=O)cc1OC
Result string: 316 µM

---
Query string: Value lookup for IC50; key = CN(C)c1ccc(CN2Cc3cccc(C(=O)O)c3C2=O)cc1
Result string: 174 µM

====

target-or-system: NDM-1 (Klebsiella pneumoniae, UniProt C7C422)
Sequence (C7C422 29-270, looked up, species assumed): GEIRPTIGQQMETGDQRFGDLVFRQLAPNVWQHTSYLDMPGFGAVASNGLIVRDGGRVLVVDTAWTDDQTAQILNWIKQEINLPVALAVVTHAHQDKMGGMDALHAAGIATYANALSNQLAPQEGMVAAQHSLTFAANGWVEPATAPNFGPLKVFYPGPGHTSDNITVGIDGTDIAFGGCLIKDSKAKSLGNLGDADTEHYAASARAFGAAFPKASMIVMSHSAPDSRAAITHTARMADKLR
endpoint-label: IC50

Query string: Item O=C(O)c1cccc2c1C(=O)N(Cc1c(F)cccc1Cl)C2 [Compound 16] with NDM-1 (Klebsiella pneumoniae, UniProt C7C422) - IC50?
Result string: > 400 µM

In the following, a different molecule is considered.
Query string: Item O=C(O)c1cccc2c1C(=O)N(c1cccc(C(F)(F)F)c1)C2 [Compound 17] with NDM-1 (Klebsiella pneumoniae, UniProt C7C422) - IC50?
Result string: > 400 µM

====

target-or-system: VIM-2 (Escherichia coli)
Construct: made in house; host or cells: Escherichia coli
experiment-notes: biochemical
Format: biochemical
reported-conditions: FC-5 based assay, n ≥ 3; read-out: IC50 (VIM-2)
endpoint-label: IC50 (µM)
Field format: number, assumed µM, no unit text.

# example entries with known answers
Query string: Value lookup for IC50; key = O=C(O)c1cccc2c1C(=O)N(Cc1ccc(F)cc1)C2 [Compound 23]
Result string: 250

Query string: Value lookup for IC50; key = CC(c1ccccc1)N1Cc2cccc(C(=O)O)c2C1=O (stereo not drawn) [Compound 28]
Result string: 168

Query string: Value lookup for IC50; key = Cc1ccc(-c2cn3nnc(C(=O)O)c3c(=O)[nH]2)cc1 [Compound 9]
Result string: 439

---
Query string: Value lookup for IC50; key = NC(=S)N/N=C1\C(=O)Nc2c(C(=O)O)cccc21 [Compound 7]
Result string: 199

Query string: Value lookup for IC50; key = O=C(Cc1ccc(Cl)cc1)c1ccc(O)cc1O [Compound 6]
Result string: 111

Query string: Value lookup for IC50; key = CN(C)c1ccc(/C=C/C(=O)c2ccccc2C(=O)O)cc1 [Compound 13]
Result string: 135

Query string: Value lookup for IC50; key = O=C(O)c1cccc2c1C(=O)N(Cc1cccnc1)C2 [Compound 21]
Result string: 349

====

target-or-system: BcII (Bacillus cereus, UniProt P04190)
Sequence (P04190 31-257): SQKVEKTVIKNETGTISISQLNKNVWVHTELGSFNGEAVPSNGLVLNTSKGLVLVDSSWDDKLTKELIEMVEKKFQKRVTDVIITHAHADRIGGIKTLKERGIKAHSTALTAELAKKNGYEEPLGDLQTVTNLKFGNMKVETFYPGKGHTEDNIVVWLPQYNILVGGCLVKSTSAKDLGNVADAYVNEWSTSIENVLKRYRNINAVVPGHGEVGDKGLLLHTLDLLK
endpoint-label: IC50

Query string: Value lookup for IC50; key = O=C(O)c1cccc2c1C(=O)N(Cc1c(F)cccc1Cl)C2 [Compound 16]
Result string: > 400 µM

In the following, a different molecule is considered.
Query string: Value lookup for IC50; key = O=C(O)c1cccc2c1C(=O)N(c1cccc(C(F)(F)F)c1)C2 [Compound 17]
Result string: > 400 µM

====

target-or-system: UniProt P52700
Sequence (P52700 34-290): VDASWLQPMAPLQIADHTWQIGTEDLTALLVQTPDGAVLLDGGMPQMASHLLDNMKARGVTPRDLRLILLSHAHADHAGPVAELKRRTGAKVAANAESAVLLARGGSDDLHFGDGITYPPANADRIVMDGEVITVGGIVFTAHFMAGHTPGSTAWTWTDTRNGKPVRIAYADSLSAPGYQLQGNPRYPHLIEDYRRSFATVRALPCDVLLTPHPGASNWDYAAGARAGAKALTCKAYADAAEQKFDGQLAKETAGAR
experiment-notes: biochemical
Description: Except where noted, recombinant forms of NDM-1, VIM-2, SPM-1, IMP-1, and BcII MBLs were produced in Escherichia coli and assays were carried out as described previously10. The IC50 values of all the compounds for VIM-2 were determined using […] concentrations (0 μM, 1 μM, and 100 μM, see Fig. S8). The selectivity profiles of […] as described above. The inhibitory activities of these compounds against CphA (B2 MBL)13 and L1 (B3 MBL)14 were determined using meropenem and nitrocefin, […] at 100 μM. […]
endpoint-label: IC50

Query string: Item O=C(O)c1cccc2c1C(=O)N(Cc1c(F)cccc1Cl)C2 with UniProt P52700 - IC50?
Result string: > 400 µM

---
Query string: Item O=C(O)c1cccc2c1C(=O)N(c1cccc(C(F)(F)F)c1)C2 with UniProt P52700 - IC50?
Result string: > 400 µM

Source of measurements: paper PMC5369532
